Ref: paper PMC12040169

assay: in vitro; settings: human, hela cells, % viability

compound: CN1CCN(CCCCOc2ccc(Cc3ccccc3)cc2)CC1 [CBK269692C]
viability at 28.5 h, 10 µM: 91.6%
//
compound: CNCc1cn(C[C@H]2CC3CCN2C[C@@H]3C(=O)N2CCCC2)nn1 (stereo partly shown) [CBK289087]
viability at 28.5 h, 10 µM: 104%
//
compound: N#Cc1cn(S(=O)(=O)c2cccc(C(F)(F)F)c2)nc1N [CBK067225]
viability at 28.5 h, 10 µM: 92.6%
//
compound: O=S(=O)(NC1c2cccc3cccc(c23)C1Sc1ncccn1)c1ccccc1 (stereo not shown) [CBK264706]
viability at 28.5 h, 10 µM: 103%
//
compound: O=C(NCCc1c[nH]c2ccc(Cl)cc12)c1ccoc1 [CBK159782]
viability at 28.5 h, 10 µM: 97.9%
//
compound: COc1cc(NC(=O)Cn2nc([N+](=O)[O-])c(Cl)c2C)c(OC)cc1Cl [CBK033535]
viability at 28.5 h, 10 µM: 97.9%
//
compound: CCCc1c(O)nc(SCC(=O)NCc2ccco2)[nH]c1=O [CBK073278]
viability at 28.5 h, 10 µM: 95.2%

###

assay: in vitro; conditions: human, hela cells, % viability

compound: O=C1NC/C=C/CC2(CCN(c3ncccn3)CC2)C(=O)NCCOc2ccccc21
viability at 28.5 h, 10 µM / %: 90.3
//
compound: O=C(O)CCCCCNC(=S)Nc1cccc(Cl)c1
viability at 28.5 h, 10 µM / %: 88.1
//
compound: Cc1nn(C)c2nc(NCc3ccc(C(=O)N4CCCC4)cc3)sc12
viability at 28.5 h, 10 µM / %: 88.6
//
compound: Cc1csc(C(Cc2ccsc2)NC(=O)Cn2cccn2)n1 (stereo not shown)
viability at 28.5 h, 10 µM / %: 89.7
//
compound: CCc1nc2ccc(C(=O)NCCN3CCNC3=O)cn2c1N(CCN(C)C)CC1CC1
viability at 28.5 h, 10 µM / %: 89.2
//
compound: O=C(Nc1ccc(N2CCOCC2)c2nonc12)c1cc(-c2cccnc2)nc2ccc(Cl)cc12
viability at 28.5 h, 10 µM / %: 89.8
//
compound: Cc1ccc(CNC(=O)NCCc2cccs2)cc1
viability at 28.5 h, 10 µM / %: 88.5

###

experiment: in vitro; conditions: human, hela cells, % viability

structureNotation: Cn1cc(CN(C(=O)c2nc(N)nc3c2CCCC3)C2CC2)cn1
viability at 28.5 h, 10 µM (%): 90.1
//
structureNotation: O=C(Nc1cccc2cc[nH]c12)c1cc(F)cc(Cl)c1
viability at 28.5 h, 10 µM (%): 88.8
//
structureNotation: Cc1nn(C)c(Cl)c1S(=O)(=O)Nc1ccc2cn[nH]c2c1
viability at 28.5 h, 10 µM (%): 90.2

###

test: in vitro; conditions: human, hela cells, % viability

structureNotation: O=C(O)c1cccc(N2C(=O)c3cccc4c(C(=O)c5ccccc5)ccc(c34)C2=O)c1
viability at 28.5 h, 10 µM [%]: 74.2
--
structureNotation: Cc1ccc(Oc2ncccc2NC(=O)CN2CCC(NC(=O)c3ccccc3)CC2)c2c1CCC2
viability at 28.5 h, 10 µM [%]: 112
--
structureNotation: Cc1ccc(-n2c(SCC(=O)N3CCCCC3)nnc2-c2cc(Br)ccc2O)c(C)c1
viability at 28.5 h, 10 µM [%]: 94.7
--
structureNotation: Cc1c(C(=O)O)sc(S(=O)(=O)N2CCN(C(=O)CCc3cccs3)CC2)c1C(=O)O
viability at 28.5 h, 10 µM [%]: 105

###

Measured viability at 28.5 h, 10 µM, listed per entry.
assay: in vitro; conditions: human, hela cells, % viability

compound: c1ccc(-c2nnc3ccccc3c2N2CCNCC2)cc1
viability at 28.5 h, 10 µM / %: 107
--
compound: CCCCn1cc(CN(C)C)c2c(C)ccnc21
viability at 28.5 h, 10 µM / %: 102
--
compound: O=C(NCCN1CCOCC1)c1cc(Br)cnc1N1CCOCC1
viability at 28.5 h, 10 µM / %: 104
--
compound: Cc1cccc(C)c1NC(=O)CCC(=O)OCc1ccccc1
viability at 28.5 h, 10 µM / %: 102
--
compound: Cc1c(Cl)cccc1NC(=O)CSCc1cc(=O)[nH][nH]1
viability at 28.5 h, 10 µM / %: 98.1
--
compound: O=C(NCCSCc1ccco1)Nc1cccc(Cl)c1
viability at 28.5 h, 10 µM / %: 99.2
--
compound: CCC(C)(C)C1CCC(NC(=O)CSCCC(=O)O)CC1 (centres unmarked)
viability at 28.5 h, 10 µM / %: 107
--
compound: COc1cccc(CC(=O)Nc2ncccc2O)c1
viability at 28.5 h, 10 µM / %: 95.3
--
compound: COc1ccc(C2=CC(c3ccc(C(F)(F)F)cc3)n3nnnc3N2)cc1OC (centres unmarked)
viability at 28.5 h, 10 µM / %: 117
--
compound: N=c1n(-c2ccccc2)c(O)c(C(c2ccncc2)c2c(O)n(-c3ccccc3)c(=N)n(-c3ccccc3)c2=O)c(=O)n1-c1ccccc1 (centres unmarked)
viability at 28.5 h, 10 µM / %: 82
--
compound: N#Cc1ccccc1NC(=O)CN1CCCCCC1
viability at 28.5 h, 10 µM / %: 87.8
--
compound: CCc1ccc(C(O)CNC2CCN(Cc3cscn3)CC2)cc1 (centres unmarked)
viability at 28.5 h, 10 µM / %: 108
--
compound: Cc1ccc(C(=O)O)cc1NC(=O)C(=O)NCC(c1ccccc1)N(C)C (centres unmarked)
viability at 28.5 h, 10 µM / %: 96.3
--
compound: CC(=O)c1ccc(-c2cc(C(=O)NCCc3cccnc3)cnc2-c2ccc(F)cc2)s1
viability at 28.5 h, 10 µM / %: 102
--
compound: O=C(O)Cc1ccc(NC(=S)Nc2ccc([N+](=O)[O-])cc2)cc1
viability at 28.5 h, 10 µM / %: 98.7
--
compound: O=C(C1=C(O)C(=O)N(Cc2cccnc2)C1c1cccnc1)c1cccs1 (centres unmarked)
viability at 28.5 h, 10 µM / %: 119
--
compound: Cc1ccc2nc(SCC(=O)O)nc(C)c2c1
viability at 28.5 h, 10 µM / %: 94.1
--
compound: CN1CCC(OCCCn2ccnc2-c2nccn2C)CC1
viability at 28.5 h, 10 µM / %: 96.2
--
compound: COc1nccnc1N1CCN(CCOc2ccccc2)CC1
viability at 28.5 h, 10 µM / %: 94.1
--
compound: CC(=O)Oc1ccc(-c2cccc(C(=O)NCC(=O)O)c2)cc1
viability at 28.5 h, 10 µM / %: 86.9
--
compound: CCn1c2ccccc2c2cc(Nc3cc(-c4ccc(OC(F)(F)F)cc4)ncn3)ccc21
viability at 28.5 h, 10 µM / %: 87.3
--
compound: Cc1nnc(SCc2ccc(CSc3nnc(C)c(=O)[nH]3)cc2)[nH]c1=O
viability at 28.5 h, 10 µM / %: 86.1
--
compound: O=C(NC1CCCC1)c1ccc(-c2cnc3[nH]c(=O)n(Cc4ccc(Cl)cc4)c3n2)cc1
viability at 28.5 h, 10 µM / %: 94.7
--
compound: CN1CCC(N(C)C(=O)NCc2cccnc2)C1 (centres unmarked)
viability at 28.5 h, 10 µM / %: 93.5
--
compound: CCOC(=O)c1c(NC(=O)Cn2cnc([N+](=O)[O-])n2)sc2c1CCC2
viability at 28.5 h, 10 µM / %: 92.5
--
compound: CCN1CCN(c2ccc(C(=O)OC)cc2NC(=O)c2ccccc2C)CC1
viability at 28.5 h, 10 µM / %: 92.9
--
compound: CC1(C)CC(=O)C=C(C(=O)Nc2ccccc2N2CCCNCC2)O1 [CBK038935T]
viability at 28.5 h, 10 µM / %: 112
--
compound: Cc1cccc(CN2CCN(c3ccccc3C(O)c3nccn3C)CC2)c1 (centres unmarked)
viability at 28.5 h, 10 µM / %: 88.5
--
compound: Cc1nnc2n1-c1ccc(Cl)cc1C(c1ccccc1)=NN2CCCC(=O)c1ccc(F)cc1
viability at 28.5 h, 10 µM / %: 86.6
--
compound: CCCC(=O)N1CCC(c2nc(Cc3cccs3)no2)C1 (centres unmarked)
viability at 28.5 h, 10 µM / %: 88
--
compound: CN1C(=O)COc2ccccc2CCCC[C@@H]2[C@H]1CCCN2C(=O)CCn1ccnc1
viability at 28.5 h, 10 µM / %: 96.6
--
compound: Cc1cc2ccccc2n1CCC(=O)NC1CCCOC1 (centres unmarked)
viability at 28.5 h, 10 µM / %: 91.1
--
compound: CC[C@@H]1CCCCN1C(=O)c1sc2nc(C(C)=O)ccc2c1Cl
viability at 28.5 h, 10 µM / %: 88.1
--
compound: OC(COc1ccc2c(c1)OCO2)CN1CCCN(c2nc3ccc(Cl)cc3s2)CC1 (centres unmarked)
viability at 28.5 h, 10 µM / %: 102
--
compound: O=C(CN1CCN(S(=O)(=O)N2CCCCC2)CC1)Nc1ccc(Br)cc1
viability at 28.5 h, 10 µM / %: 91.7
